MLD (Minimum Lethal Dose) overview
test system: ddY strain male mice; experiment: Acute toxicity, minimum lethal dose; format: in vivo; conditions: p.o.; mortality for 7 days
Respond with the bare value in mg/kg.

compound	tested-system	scale-unit	MLD (Minimum Lethal Dose)
CCOc1cc(C(=O)O[C@H]2C[C@H]3CC[C@@H](C2)N3C)c2ccccc2n1 [Compound 10Sa]	ddY strain male mice	mg/kg	50

Query: // query MLD (Minimum Lethal Dose) value for entry CCCOc1cc(C(=O)O[C@H]2C[C@H]3CC[C@@H](C2)N3C)c2ccccc2n1
Response: 100

Query: // query MLD (Minimum Lethal Dose) value for entry COc1cc(C(=O)O[C@H]2C[C@H]3CC[C@@H](C2)N3C)c2ccccc2n1
Response: 50

Query: // query MLD (Minimum Lethal Dose) value for entry CCCCCCOc1cc(C(=O)O[C@H]2C[C@H]3CC[C@@H](C2)N3C)c2ccccc2n1
Response: 50

Query: // query MLD (Minimum Lethal Dose) value for entry CCCCOc1cc(C(=O)O[C@H]2C[C@H]3CC[C@@H](C2)N3C)c2ccccc2n1
Response: 100
